- Test system: Plasmodium berghei
- procedure-text: Screen against P. berghei liver stage (PbLuc), transformed with Luciferase, at 10uM
- Type: functional, HepG2
- condition-info: tested at 10 uM
About 8,600 (12%) of roughly 69,000 compounds showed an effect of 50% or more. Only a selection was taken, and strong results are over-represented in it overall.
Exercise: state measured INHIBITION for each of the compounds provided.
Please state the figure in %; there is no need to write the unit.

Look up INHIBITION for this compound: CCCS(=O)(=O)N1CCC(Oc2ccc(C#N)cc2)CC1
25.8

Look up INHIBITION for this compound: Nc1nc2c(c(NCc3ccc(C(=O)N4CCCC4)cc3)n1)CCCC2
63.8

Look up INHIBITION for this compound: CC(C)Cc1noc(C2CCCCN2C(=O)CCc2cnn(C)c2)n1 (stereo not given)
32.2

Look up INHIBITION for this compound: N#Cc1cccnc1N1CCN(C(=O)c2cccs2)CC1
9.16

Look up INHIBITION for this compound: O=C(Nc1cccc(C(F)(F)F)c1)N1CCN(CCn2ccnc2)CC1
60.2

====

- Tested on: Plasmodium berghei
- procedure-text: Screen against P. berghei liver stage (PbLuc), transformed with Luciferase, at 10uM
- Format: functional, HepG2
- condition-info: tested at 10 uM
Screen size: about 69,000 compounds; about 8,600 (12%) showed an effect of 50% or more. The sample as a whole holds a higher share of strong results than the screen did.
Kindly note that classification relies on INHIBITION with these boundaries: bucket 1 = under 10%, bucket 2 = from 10% up to 40%, bucket 3 = 40% and over

Kindly state the category for this compound: COCCN1CCO[C@@H]2CN(Cc3sccc3C)C[C@@H]2C1
bucket 2

Kindly state the category for this compound: CN(C)C(=O)N[C@@H]1CN(S(C)(=O)=O)[C@@H]2CCCO[C@@H]21
bucket 3

Kindly state the category for this compound: c1cnc(N2CCCC(c3n[nH]c4ncccc34)C2)nc1 (stereo not given)
bucket 1

Kindly state the category for this compound: Cc1cccc(C)c1NC(=O)CN(C)C(C)c1nc(C(C)(C)C)no1 (stereo not given)
bucket 2

Kindly state the category for this compound: O=C(CN1CCN(C(=O)c2ccccc2)CC1)Nc1ccc(Br)cn1
bucket 3

Kindly state the category for this compound: O=C(NCC1OCCc2cn(CC3CCOCC3)nc21)c1ccsc1 (stereo not given)
bucket 3

Kindly state the category for this compound: CC(=O)NCc1cc2n(n1)CCN(Cc1cccc(Cl)c1F)C2
bucket 2

Kindly state the category for this compound: COCC1CC2(CCN(CC3CC3)CC2)CN1Cc1csc(C)n1 (stereo not given)
bucket 2

Kindly state the category for this compound: COCCCN1CC2(CCCCN2C(=O)c2ccsc2)CC1=O (stereo not given)
bucket 2

Kindly state the category for this compound: Cc1ccc(C(=O)N2CCC3(CC2)c2ccccc2[C@@H](N)[C@@H]3O)cc1F
bucket 2

Kindly state the category for this compound: CN(Cc1noc(C2CC2)n1)C1CCN(Cc2ccc(F)c(F)c2)C1 (stereo not given)
bucket 1

Kindly state the category for this compound: Cc1cccc(CC(=O)N2CCCCC2CN)c1 (stereo not given)
bucket 1

Kindly state the category for this compound: CN1CCS(=O)(=O)[C@@H]2CCN(C(=O)CC(C)(C)C)CC[C@@H]21
bucket 2

Kindly state the category for this compound: CC(C)c1nc2c(n1C)CCN(CC(=O)Nc1nncs1)C2
bucket 1

Kindly state the category for this compound: Cc1cc(C[S+]([O-])Cc2ccccc2C)no1 (stereo not given)
bucket 1

Kindly state the category for this compound: CN(C)S(=O)(=O)N1C[C@@H]2C[C@H](C(=O)NCc3ccccc3)[C@H](C1)O2
bucket 2

Kindly state the category for this compound: CCc1nnc(NC(=O)Cc2c(C)nc(C)[nH]c2=O)s1
bucket 2

Kindly state the category for this compound: OC1(Cn2ccc3ncccc32)CCN(Cc2cccnc2)CC1
bucket 2

Kindly state the category for this compound: OC(COCc1cccs1)Cn1cc(-n2cccc2)cn1 (stereo not given)
bucket 1

====

- System: Plasmodium berghei
- procedure-text: Screen against P. berghei liver stage (PbLuc), transformed with Luciferase, at 10uM
- Type: functional, HepG2
- condition-info: tested at 10 uM
Out of some 69,000 compounds screened, about 8,600 (12%) showed an effect of 50% or more. For the sample, strong results were picked, then their nearest neighbours and some compounds at random.
recorded-metric: INHIBITION (%)
Please state the figure in %; there is no need to write the unit.

Look up INHIBITION for this compound: CCc1noc(C2CCCCN2C(=O)c2nnc3ccccc3n2)n1 (stereo unspecified)
62.4

Look up INHIBITION for this compound: Cc1cccc(C(=O)N2CCCC[C@]3(C)NC(=O)CCC[C@H]23)n1
31.6

Look up INHIBITION for this compound: c1cnc(NCc2nnn3c2CN(Cc2cccs2)CCC3)nc1
24.9

Look up INHIBITION for this compound: CC(C)NC(=O)[C@H]1CCS(=O)(=O)[C@@H]2CN(c3ncc(F)cn3)C[C@H]12
-13

Look up INHIBITION for this compound: Nc1nc2c(c(NC(Cn3cccn3)c3ccccc3)n1)CCNCC2 (stereo unspecified)
75.5

Look up INHIBITION for this compound: CC(C)CNC(=O)CNC(=O)c1nc(Cc2c(Cl)cccc2Cl)no1
41

Look up INHIBITION for this compound: COc1ncc(NCc2cc(C#N)cs2)cc1C(N)=O
11.4

Look up INHIBITION for this compound: CCc1noc(C2CCCCN2C(=O)c2ccc(C)o2)n1 (stereo unspecified)
45.8

Look up INHIBITION for this compound: CCc1noc(C)c1C(=O)N1CCCC(n2nc(C)nc2C)C1 (stereo unspecified)
-19.85

Look up INHIBITION for this compound: O=C(c1ncccn1)N1CCC[C@]2(C[C@@H](OCC3CC3)CO2)C1
34.6

Look up INHIBITION for this compound: CN(C)S(=O)(=O)c1ccc(-c2nc(C#N)c(NC3CC3)o2)o1
15.4

Look up INHIBITION for this compound: CN1CC2(CCN(C(=O)c3ccc(-n4cnnc4)cc3Cl)CC2)OC1=O
-6.01

Look up INHIBITION for this compound: Cc1ccc(C(=O)NCCNc2ncccc2C#N)c(=O)[nH]1
-58.7

Look up INHIBITION for this compound: COCC(Nc1nc(N(C)C)nc2c1CCNCC2)c1ccccn1 (stereo unspecified)
34.9

Look up INHIBITION for this compound: N#Cc1c(CN2CCCCC2Cn2cncn2)cn2ccccc12 (stereo unspecified)
19.3

Look up INHIBITION for this compound: Cc1nn(C)c2c(=O)n(C)c(NCC3CCCO3)nc12 (stereo unspecified)
49.1

Look up INHIBITION for this compound: CC(C)CNC(=O)[C@H]1CCS(=O)(=O)[C@@H]2CN(c3ncccn3)C[C@H]12
35.8

Look up INHIBITION for this compound: CCc1ccc(CN2CCOC(Cc3cccc(F)c3)C2)nc1 (stereo unspecified)
22

Look up INHIBITION for this compound: CN(C)CCCC(=O)NC1CC(C)(C)Cc2nc(C(C)(C)C)ncc21 (stereo unspecified)
22

Look up INHIBITION for this compound: CC(C)c1nn(C)c(N(C)C)c1CNCc1cccc2cccnc12
19.283

Look up INHIBITION for this compound: CC(C)(C)Oc1ccncc1NCc1cscn1
70.3

Look up INHIBITION for this compound: CCc1noc(C2CCCCN2C(=O)c2cc(C)on2)n1 (stereo unspecified)
22.6

Look up INHIBITION for this compound: COCC(NC(=O)c1cc(C)n(C)n1)c1cccc(C(F)(F)F)c1 (stereo unspecified)
-0.532

Look up INHIBITION for this compound: COc1cccc(CNC(=O)c2cccnc2SC(C)C)c1
7.27

Look up INHIBITION for this compound: CCc1noc(C2CCCCN2C(=O)c2ccccc2)n1 (stereo unspecified)
-45

Look up INHIBITION for this compound: CCCn1nnc(NCc2ccccc2OCc2ccc(Cl)cc2)n1
-36.8

Look up INHIBITION for this compound: O=C(NCC1CCS(=O)(=O)C1)c1cccc(CN2CCCC2)c1 (stereo unspecified)
24.7

Look up INHIBITION for this compound: CCc1noc(C2CCCCN2C(=O)c2cccs2)n1 (stereo unspecified)
9.32

Look up INHIBITION for this compound: COc1ccccc1C(O)CNc1c(C#N)c(=O)n(C)c(=O)n1C (stereo unspecified)
46.2

Look up INHIBITION for this compound: O=C(O)[C@@H]1CN(C(=O)CN2CCCCCC2)C[C@H]1c1ccccc1
-6.21

Look up INHIBITION for this compound: CN(C)CCO[C@H]1CN(CC2CC2)[C@@H]2CCCO[C@H]12
25.8

Look up INHIBITION for this compound: Cc1nc(CSCCC(=O)NCCNC(=O)OC(C)(C)C)cs1
-30.7

Look up INHIBITION for this compound: CCc1cnc(CN(C)C2CCN(CCNS(=O)(=O)CC)C2)o1 (stereo unspecified)
-42

Look up INHIBITION for this compound: Cc1nc(C)n(CC2CCCCN2Cc2cnc(C)s2)n1 (stereo unspecified)
30.6

Look up INHIBITION for this compound: CCc1cnc(N2C[C@@H]3[C@@H](C(=O)N(C)C)CCS(=O)(=O)[C@@H]3C2)nc1
36.7

Look up INHIBITION for this compound: Cc1nc(CSCCC(=O)NCC(=O)NC(C)C)cs1
29.4
